Measured RTCA, MEC (BR) accompanies every entry in the list below.
tested on: hiPSC-CM (iCell Cardiomyocytes^2); assay: RTCA CardioECR assessment (impedance and electrophysiology parameters); settings: human, 72 h

{"columns": ["MOLECULE", "RTCA, MEC (BR), µM"],
 "data": [
  ["CC(=O)O[C@H]1C(=O)[C@@]2(C)[C@H]([C@H](OC(=O)c3ccccc3)[C@]3(O)C[C@H](OC(=O)[C@H](O)[C@@H](NC(=O)c4ccccc4)c4ccccc4)C(C)=C1C3(C)C)[C@]1(OC(C)=O)CO[C@@H]1C[C@@H]2O [Paclitaxel]", 3],
  ["Cc1nc(Nc2ncc(C(=O)Nc3c(C)cccc3Cl)s2)cc(N2CCN(CCO)CC2)n1 [Dasatinib]", 0.3],
  ["CC[C@]1(O)C[C@@H]2CN(CCc3c([nH]c4ccccc34)[C@@](C(=O)OC)(c3cc4c(cc3OC)N(C)[C@H]3[C@@](O)(C(=O)OC)[C@H](OC(C)=O)[C@]5(CC)C=CCN6CC[C@]43[C@@H]65)C2)C1 [Vinblastine]", 0.003]
]}

====

tested on: hiPSC-CM (iCell Cardiomyocytes^2); assay: RTCA CardioECR assessment (impedance and electrophysiology parameters); settings: hiPSC-CM, 72-hour treatment; lowest concentration causing at least 20% change from baseline
Structures can show the parent of a compound that is named as a salt.

{"columns": ["COMPOUND", "TESTED_ON", "Cell index (CI) MEC"],
 "data": [
  ["CC(=O)[C@]1(O)Cc2c(O)c3c(c(O)c2[C@@H](O[C@H]2C[C@H](N)[C@H](O)[C@H](C)O2)C1)C(=O)c1ccccc1C3=O", "hiPSC-CM (iCell Cardiomyocytes^2)", "0.1 µM"],
  ["CC[C@]1(O)C[C@H]2CN(CCc3c([nH]c4ccccc34)[C@@](C(=O)OC)(c3cc4c(cc3OC)N(C=O)[C@H]3[C@@](O)(C(=O)OC)[C@H](OC(C)=O)[C@]5(CC)C=CCN6CC[C@]43[C@@H]65)C2)C1", "hiPSC-CM (iCell Cardiomyocytes^2)", "0.003 µM"],
  ["Cc1nc(Nc2ncc(C(=O)Nc3c(C)cccc3Cl)s2)cc(N2CCN(CCO)CC2)n1", "hiPSC-CM (iCell Cardiomyocytes^2)", "1 µM"],
  ["CC(C)C[C@H](NC(=O)CNC(=O)c1cc(Cl)ccc1Cl)B1OC(=O)C(CC(=O)O)(CC(=O)O)O1 [Ixazomib Citrate]", "hiPSC-CM (iCell Cardiomyocytes^2)", "0.3 µM"],
  ["CCC1=C[C@@H]2CN(C1)Cc1c([nH]c3ccccc13)[C@@](C(=O)OC)(c1cc3c(cc1OC)N(C)[C@H]1[C@@](O)(C(=O)OC)[C@H](OC(C)=O)[C@]4(CC)C=CCN5CC[C@]31[C@@H]54)C2", "hiPSC-CM (iCell Cardiomyocytes^2)", "0.1 µM"],
  ["CC(C)C[C@H](NC(=O)[C@H](CCc1ccccc1)NC(=O)CN1CCOCC1)C(=O)N[C@@H](Cc1ccccc1)C(=O)N[C@@H](CC(C)C)C(=O)[C@@]1(C)CO1", "hiPSC-CM (iCell Cardiomyocytes^2)", "0.3 µM"]
]}

====

test system: hiPSC-CM (iCell Cardiomyocytes^2); assay: Intracellular miRNA expression by RT-qPCR in hiPSC-CM pellets after 72-hour treatment; conditions: 0.3 µM, 72 h
Counter-ions that a name gives are not always drawn.
OUTCOME_MEASURE: hsa-miR-182-5p fold change, intracellular

{"columns": ["MOLECULE", "EXPERIMENTAL_VALUE"],
 "data": [
  ["Cc1cn(-c2cc(NC(=O)c3ccc(C)c(Nc4nccc(-c5cccnc5)n4)c3)cc(C(F)(F)F)c2)cn1 [Nilotinib]", 0.7],
  ["Cc1nc(Nc2ncc(C(=O)Nc3c(C)cccc3Cl)s2)cc(N2CCN(CCO)CC2)n1 [Dasatinib]", 2.5],
  ["CC(C)C[C@H](NC(=O)CNC(=O)c1cc(Cl)ccc1Cl)B1OC(=O)C(CC(=O)O)(CC(=O)O)O1 [Ixazomib Citrate]", 8.5],
  ["CC(C)C[C@H](NC(=O)[C@H](CCc1ccccc1)NC(=O)CN1CCOCC1)C(=O)N[C@@H](Cc1ccccc1)C(=O)N[C@@H](CC(C)C)C(=O)[C@@]1(C)CO1 [Carfilzomib]", 12.6],
  ["CC[C@]1(O)C[C@H]2CN(CCc3c([nH]c4ccccc34)[C@@](C(=O)OC)(c3cc4c(cc3OC)N(C=O)[C@H]3[C@@](O)(C(=O)OC)[C@H](OC(C)=O)[C@]5(CC)C=CCN6CC[C@]43[C@@H]65)C2)C1 [Vincristine]", 0.4]
]}

====

system: hiPSC-CM (iCell Cardiomyocytes^2); assay: Intracellular miRNA expression by RT-qPCR in hiPSC-CM pellets after 72-hour treatment; details: 1 µM, 72 h
Counter-ions that a name gives are not always drawn.
OUTCOME_MEASURE: hsa-miR-182-5p fold change, intracellular

{"columns": ["COMPOUND", "TESTED_ON", "EXPERIMENTAL_VALUE"],
 "data": [
  ["CC(C)C[C@H](NC(=O)CNC(=O)c1cc(Cl)ccc1Cl)B1OC(=O)C(CC(=O)O)(CC(=O)O)O1 [Ixazomib Citrate]", "hiPSC-CM (iCell Cardiomyocytes^2)", 5.6],
  ["Cc1cn(-c2cc(NC(=O)c3ccc(C)c(Nc4nccc(-c5cccnc5)n4)c3)cc(C(F)(F)F)c2)cn1 [Nilotinib]", "hiPSC-CM (iCell Cardiomyocytes^2)", 0.4],
  ["CC(C)C[C@H](NC(=O)[C@H](CCc1ccccc1)NC(=O)CN1CCOCC1)C(=O)N[C@@H](Cc1ccccc1)C(=O)N[C@@H](CC(C)C)C(=O)[C@@]1(C)CO1 [Carfilzomib]", "hiPSC-CM (iCell Cardiomyocytes^2)", 20.8],
  ["Cc1nc(Nc2ncc(C(=O)Nc3c(C)cccc3Cl)s2)cc(N2CCN(CCO)CC2)n1 [Dasatinib]", "hiPSC-CM (iCell Cardiomyocytes^2)", 0.9]
]}

====

test system: hiPSC-CM (iCell Cardiomyocytes^2); assay: Intracellular miRNA expression by RT-qPCR in hiPSC-CM pellets after 72-hour treatment; settings: Homo sapiens, 72 h, read-out: hsa-miR-208b-3p fold change
OUTCOME_MEASURE: fold induction at 1 µM

{"columns": ["COMPOUND", "EXPERIMENTAL_VALUE"],
 "data": [
  ["CCCN1C[C@H](CSC)C[C@@H]2c3cccc4[nH]cc(c34)C[C@H]21 [Pergolide]", 2.2],
  ["CCC1=C[C@@H]2CN(C1)Cc1c([nH]c3ccccc13)[C@@](C(=O)OC)(c1cc3c(cc1OC)N(C)[C@H]1[C@@](O)(C(=O)OC)[C@H](OC(C)=O)[C@]4(CC)C=CCN5CC[C@]31[C@@H]54)C2", 0.7],
  ["CC(=O)[C@]1(O)Cc2c(O)c3c(c(O)c2[C@@H](O[C@H]2C[C@H](N)[C@H](O)[C@H](C)O2)C1)C(=O)c1ccccc1C3=O", 0.8],
  ["COc1nc(N)nc2c1ncn2[C@@H]1O[C@H](COP(=O)(N[C@@H](C)C(=O)OCC(C)(C)C)Oc2cccc3ccccc23)[C@@H](O)[C@@]1(C)O (stereo partly shown)", 1.1]
]}

====

system: hiPSC-CM (iCell Cardiomyocytes^2); experiment: Intracellular miRNA expression by RT-qPCR in hiPSC-CM pellets after 72-hour treatment; conditions: Homo sapiens, 72 h, read-out: hsa-miR-7-5p fold change

{"columns": ["COMPOUND", "fold induction at 0.1 µM"],
 "data": [
  ["CCN[C@@H](C)Cc1cccc(C(F)(F)F)c1", 0.7],
  ["CC(=O)[C@]1(O)Cc2c(O)c3c(c(O)c2[C@@H](O[C@H]2C[C@H](N)[C@H](O)[C@H](C)O2)C1)C(=O)c1ccccc1C3=O", 4.5],
  ["Cc1[nH]c(=O)c(C#N)cc1-c1ccncc1", 1.1],
  ["COc1nc(N)nc2c1ncn2[C@@H]1O[C@H](COP(=O)(N[C@@H](C)C(=O)OCC(C)(C)C)Oc2cccc3ccccc23)[C@@H](O)[C@@]1(C)O (stereo partly drawn)", 1.7],
  ["CCCCCNC(=N)N/N=C/c1c[nH]c2ccc(OC)cc12", 1.3],
  ["CCC1=C[C@@H]2CN(C1)Cc1c([nH]c3ccccc13)[C@@](C(=O)OC)(c1cc3c(cc1OC)N(C)[C@H]1[C@@](O)(C(=O)OC)[C@H](OC(C)=O)[C@]4(CC)C=CCN5CC[C@]31[C@@H]54)C2", 1]
]}

====

tested on: hiPSC-CM (iCell Cardiomyocytes^2); assay: Intracellular miRNA expression by RT-qPCR in hiPSC-CM pellets after 72-hour treatment
OUTCOME_MEASURE: miRNAs hiPSC-CM pellet, MEC overall (µM)

{"columns": ["COMPOUND", "EXPERIMENTAL_VALUE"],
 "data": [
  ["Cc1cn(-c2cc(NC(=O)c3ccc(C)c(Nc4nccc(-c5cccnc5)n4)c3)cc(C(F)(F)F)c2)cn1", 0.3],
  ["CC[C@]1(O)C[C@H]2CN(CCc3c([nH]c4ccccc34)[C@@](C(=O)OC)(c3cc4c(cc3OC)N(C=O)[C@H]3[C@@](O)(C(=O)OC)[C@H](OC(C)=O)[C@]5(CC)C=CCN6CC[C@]43[C@@H]65)C2)C1", 0.0003]
]}
